Listed molecules paired with reported Emax
- assayed_system: RET(KD: 658-1114 G810R) (Homo sapiens, UniProt P07949, G810R)
- Construct: 658-1114; expressed in transfected cells; host or cells: 293T.165 (293T cells, generated in-house)
- Sequence (P07949 658-1114 G810R): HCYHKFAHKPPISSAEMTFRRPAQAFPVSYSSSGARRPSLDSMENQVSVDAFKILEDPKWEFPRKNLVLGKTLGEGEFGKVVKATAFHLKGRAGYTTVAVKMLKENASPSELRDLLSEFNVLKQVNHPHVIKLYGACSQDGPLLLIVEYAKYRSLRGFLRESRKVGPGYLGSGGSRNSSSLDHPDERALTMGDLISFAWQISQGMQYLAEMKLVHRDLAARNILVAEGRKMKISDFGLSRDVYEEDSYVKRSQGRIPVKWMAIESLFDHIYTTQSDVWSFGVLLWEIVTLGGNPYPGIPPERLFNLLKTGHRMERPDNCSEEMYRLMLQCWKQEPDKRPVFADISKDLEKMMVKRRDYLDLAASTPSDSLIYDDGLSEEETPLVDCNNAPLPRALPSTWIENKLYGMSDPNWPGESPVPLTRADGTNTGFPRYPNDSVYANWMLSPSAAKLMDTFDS
- assay_method_text: HiBiT-Degradation, RET G810R degradation assay (Nano-Glo HiBiT Lytic), 293T.165 cells
- Format: cell-based
- test_settings: 6.0 hours, % remaining protein, read-out: 293T.165 RET(KD: 658-1114 G810R) 6.0 hours (Emax)

Worked examples follow.
molecule: CCC1(C(=O)NC(C)C)CCN(c2ccc(-c3cc(-c4ccc(N5CCN(C(=O)CN6CCC(c7ccc(C8CCC(=O)NC8=O)cc7)CC6)CC5)cc4)cn4ncc(C#N)c34)cn2)CC1 (stereo not drawn)
Emax: < 50%
--
molecule: N#Cc1cnn2cc(-c3cnn([C@H]4CC[C@H](N5CCN(c6c(F)cc(N[C@@H]7CCC(=O)NC7=O)cc6F)CC5)CC4)c3)nc(-c3ccc(N4CCC5(CC4)OCc4cccnc45)nc3)c12 (racemic)
Emax: < 30%
--
molecule: CCC1(C(=O)NC(C)C)CCN(c2ncc(-c3cc(-c4cnn(C5CCN(C(=O)CN6CCC(c7ccc(NC8CCC(=O)NC8=O)cc7F)CC6)CC5)c4)cn4ncc(C#N)c34)cn2)CC1 (stereo not drawn)
Emax: < 50%
--
molecule: N#Cc1cnn2cc(-c3cnn(C4CCN(C(=O)CN5CCC(c6ccc(NC7CCC(=O)NC7=O)cc6F)CC5)CC4)c3)cc(-c3ccc(N4CC5CC(C4)N5Cc4ccccn4)nc3)c12 (stereo not drawn)
Emax: < 30%
--
molecule: CCC1(C(=O)NC2CCC2)CCN(c2ccc(-c3nc(-c4cnn([C@H]5CC[C@H](CN6CCN(c7ccc(N[C@@H]8CCC(=O)NC8=O)cc7F)CC6)CC5)c4)cn4ncc(C#N)c34)cn2)CC1
Emax: < 30%
--
molecule: CCC1(C(=O)NC(C)C)CCN(c2ccc(-c3nc(-c4cnn(C5CC6(C5)CN(C(=O)CC5(O)CCN(c7ccc(NC8CCC(=O)NC8=O)cc7F)CC5)C6)c4)cn4ncc(C#N)c34)cn2)CC1 (stereo not drawn)
Emax: < 30%

Task: Fill in: Emax of N#Cc1cnn2cc(-c3cnn([C@H]4CC[C@@H](N5CCN(c6ccc(N[C@H]7CCC(=O)NC7=O)cc6F)CC5)CC4)c3)nc(-c3ccc(N4CC5CC(C4)N5C(=O)c4c(F)cccc4F)nc3)c12 (single isomer, unassigned) is ___
Output: < 30%

Task: Give its Emax value. Item: N#Cc1cnn2cc(-c3ccc(N4CCN(C(=O)CC5(O)CCN(c6ccc(NC7CCC(=O)NC7=O)cc6)CC5)CC4)cc3)cc(-c3ccc(N4CCN(C(=O)Cc5ccc(F)cn5)CC4)nc3)c12 (stereo not drawn)
Output: < 50%

Task: Which measured Emax value corresponds to CCC1(c2ncccn2)CCN(c2ccc(-c3nc(-c4cnn([C@H]5CC[C@H](N6CCC(c7ccc(N[C@H]8CCC(=O)NC8=O)cc7F)CC6)CC5)c4)cn4ncc(C#N)c34)cn2)CC1 (single isomer, unassigned) ?
Output: < 30%

* * *

- assayed_system: RET (658-1114) (Homo sapiens)
- Construct: 658-1114; expressed in transfected cells; host or cells: 293T.144 (293T cells, generated in-house)
- assay_method_text: HiBiT-Degradation, RET wild-type degradation assay (Nano-Glo HiBiT Lytic), 293T.144 cells
- Format: cell-based
- test_settings: HiBiT-Degradation, 6.0 hours, read-out: 293T.144 RET (658-1114) 6.0 hours (Emax)
readout: Emax

Some entries whose results are on file:
compound: N#Cc1cnn2cc(-c3ccc(N4CCN(C(=O)CN5CCC(c6ccc(NC7CCC(=O)NC7=O)cc6F)CC5)CC4)cc3)nc(-c3ccc(N4CC5CC(C4)N5Cc4ccccc4)nc3)c12 (stereo not shown)
assayed_system: RET (658-1114) (Homo sapiens)
Emax: < 30%
//
compound: CC1(NC(=O)Cc2ccccc2)CCN(c2ccc(-c3cc(-c4ccc(N5CCN(C(=O)CN6CCC(c7ccc(NC8CCC(=O)NC8=O)cc7F)CC6)CC5)cc4)cn4ncc(C#N)c34)cn2)CC1 (stereo not shown)
assayed_system: RET (658-1114) (Homo sapiens)
Emax: < 30%
//
compound: CCC1(C(=O)NC(C)C)CCN(c2ccc(-c3cc(-c4cnn(C5CCN(C(=O)CN6CCC(c7ccc8c(N9CCC(=O)NC9=O)nn(C)c8c7)CC6)CC5)c4)cn4ncc(C#N)c34)cn2)CC1
assayed_system: RET (658-1114) (Homo sapiens)
Emax: < 30%
//
compound: CC(=O)N1CCN(c2ccc(-c3cc(-c4cnn(C5CCN(C(=O)CN6CCC(c7ccc(NC8CCC(=O)NC8=O)cc7)CC6)CC5)c4)cn4ncc(C#N)c34)cn2)CC1 (stereo not shown)
assayed_system: RET (658-1114) (Homo sapiens)
Emax: < 30%
//
compound: N#Cc1cnn2cc(-c3ccc(N4CCN(C(=O)CN5CCC(c6ccc(NC7CCC(=O)NC7=O)cc6F)CC5)CC4)cc3)cc(-c3ccc(N4CCN(C(=O)Cc5ccc(F)cn5)CC4)nc3)c12 (stereo not shown)
assayed_system: RET (658-1114) (Homo sapiens)
Emax: < 30%
//
compound: CCC1(C(=O)NC(C)C)CCN(c2ccc(-c3nc(-c4cnn(C5CCN(C(=O)CC6(O)CCN(c7ccc(NC8CCC(=O)NC8=O)cc7Cl)CC6)CC5)c4)cn4ncc(C#N)c34)cn2)CC1 (stereo not shown)
assayed_system: RET (658-1114) (Homo sapiens)
Emax: < 30%

Consider the additional compound presented here.
Task: Param item = COC1(C(=O)NC(C)C)CCN(c2ccc(-c3cc(-c4cnn(C5CCN(C(=O)CN6CCC(c7ccc(NC8CCC(=O)NC8=O)cc7F)CC6)CC5)c4)cn4ncc(C#N)c34)cn2)CC1 (stereo not shown) ; retrieve measured Emax.
Output: < 30%

* * *

- assayed_system: RET(KD: 658-1114 G810R) (Homo sapiens, UniProt P07949, G810R)
- Construct: 658-1114; expressed in transfected cells; host or cells: 293T.165 (293T cells, generated in-house)
- assay_method_text: HiBiT-Degradation, RET G810R degradation assay (Nano-Glo HiBiT Lytic), 293T.165 cells
- Format: cell-based
- test_settings: 6.0 hours, half-maximal degradation concentration, read-out: 293T.165 RET(KD: 658-1114 G810R) 6.0 hours (DC50)
Catalogue of DC50 readings, one per entry.

Check out these entries, answers already filled in.
molecule: N#Cc1cnn2cc(-c3cnn([C@H]4CC[C@H](N5CCC(c6ccc(NC7CCC(=O)NC7=O)cc6F)CC5)CC4)c3)nc(-c3ccc(N4CC5COCC(C4)N5Cc4ccccn4)nc3)c12 (single isomer, unassigned)
assayed_system: RET(KD: 658-1114 G810R) (Homo sapiens, UniProt P07949, G810R)
DC50: < 50 nM
--
molecule: CCC1(C(=O)NC(C)C)CCN(c2ncc(-c3cc(-c4cnn(C5CCN(C(=O)CN6CCC(c7ccc(NC8CCC(=O)NC8=O)cc7F)CC6)CC5)c4)cn4ncc(C#N)c34)cn2)CC1 (stereo not shown)
assayed_system: RET(KD: 658-1114 G810R) (Homo sapiens, UniProt P07949, G810R)
DC50: < 100 nM
--
molecule: N#Cc1cnn2cc(-c3cnn([C@H]4CC[C@@H](N5CCN(c6ccc(NC7CCC(=O)NC7=O)cc6F)CC5)CC4)c3)nc(-c3ccc(N4C[C@H]5COC[C@@H](C4)N5Cc4ccc(F)cn4)nc3)c12 (single isomer, unassigned)
assayed_system: RET(KD: 658-1114 G810R) (Homo sapiens, UniProt P07949, G810R)
DC50: < 50 nM

Task: I would be grateful if you could share the reported DC50 for N#Cc1cnn2cc(-c3ccc(N4CCN(C(=O)CN5CCC(c6ccc(NC7CCC(=O)NC7=O)cc6F)CC5)CC4)cc3)nc(-c3ccc(N4CCN(C(=O)Cc5ccc(F)cn5)CC4)nc3)c12 (stereo not shown) .
Output: < 100 nM

Task: Which DC50 value belongs to CCC1(C(=O)NC(C)C)CCN(c2ccc(-c3nc(-c4cnn(C5CCN(C(=O)CC6(O)CCN(c7ccc(NC8CCC(=O)NC8=O)cc7F)CC6)CC5)c4)cn4ncc(C#N)c34)cc2)CC1 (stereo not shown) ?
Output: < 50 nM

Task: Requested field: DC50. Item: CC(=O)N1CCN(c2ccc(-c3cc(-c4ccc(N5CCN(C(=O)CN6CCC(c7ccc(NC8CCC(=O)NC8=O)cc7)CC6)CC5)cc4)cn4ncc(C#N)c34)cn2)CC1 (stereo not shown)
Output: < 100 nM

Task: Would you kindly share the measured DC50 for CCC1(C(=O)NC(C)C)CCN(c2ccc(-c3nc(-c4cnn(C5CCN(C(=O)CN6CCC(c7ccc(NC8CCC(=O)NC8=O)cc7F)CC6)CC5)c4)cn4ncc(C#N)c34)cn2)CC1 (stereo not shown) ?
Output: < 50 nM

Task: What value of DC50 has been recorded for this entry: CCC1(C(=O)NC(C)C)CCN(c2ccc(-c3nc(-c4cnn(C5CCN(C(=O)CC6(O)CCN(c7ccc(NC8CCC(=O)NC8=O)cc7Br)CC6)CC5)c4)cn4ncc(C#N)c34)cn2)CC1 (stereo not shown)
Output: < 50 nM

Task: Could you tell me which DC50 is on file for CCC1(C(=O)NC(C)C)CCN(c2ncc(-c3nc(-c4cnn(C5CCN(C(=O)CC6(O)CCN(c7ccc(NC8CCC(=O)NC8=O)cc7F)CC6)CC5)c4)cn4ncc(C#N)c34)cc2F)CC1 (stereo not shown) ?
Output: < 100 nM

Task: Need DC50 of COc1ccc(CN2C3COCC2CN(c2ccc(-c4nc(-c5cnn([C@H]6CC[C@H](N7CCN(c8cc(OC)c(NC9CCC(=O)NC9=O)cc8F)CC7)CC6)c5)cn5ncc(C#N)c45)cn2)C3)cn1 (stereo partly shown) , thanks.
Output: < 100 nM

Task: Given the molecule N#Cc1cnn2cc(-c3ccc(N4CCN(C(=O)CN5CCC(c6ccc(NC7CCC(=O)NC7=O)cc6)CC5)CC4)cc3)cc(-c3ccc(N4CCN(C(=O)Cc5ccc(F)cn5)CC4)nc3)c12 (stereo not shown) , what is its reported DC50?
Output: < 50 nM

Task: Endpoint output: DC50 of N#Cc1cnn2cc(-c3ccc(N4CCN(C(=O)CN5CCC(c6ccc(NC7CCC(=O)NC7=O)cc6)CC5)CC4)cc3)cc(-c3ccc(N4CC5CC5C4)nc3)c12 (stereo not shown) . Value?
Output: < 50 nM

Task: Reported DC50, molecule CCC1(C(=O)NC2CCC2)CCN(c2ccc(-c3nc(-c4cnn([C@H]5CC[C@H](N6CCC(c7ccc(N[C@@H]8CCC(=O)NC8=O)cc7Cl)CC6)CC5)c4)cn4ncc(C#N)c34)cn2)CC1 (single isomer, unassigned) : ____
Output: < 50 nM

Task: What does the data say about its DC50? Entry: CCC1(C(=O)NC(C)C)CCN(c2ccc(-c3nc(-c4cnn(C5CCN(C(=O)CC6(O)CCN(c7ccc(NC8CCC(=O)NC8=O)c(F)c7)CC6)CC5)c4)cn4ncc(C#N)c34)cn2)CC1 (stereo not shown)
Output: < 100 nM

Task: What value of measured DC50 is listed for N#Cc1cnn2cc(-c3cnn([C@H]4CC[C@H](CCN5CCC(c6ccc(NC7CCC(=O)NC7=O)cc6F)CC5)CC4)c3)nc(-c3ccc(N4CCN(C(=O)Cc5ccc(F)cn5)CC4)nc3)c12 (stereo partly shown) ?
Output: < 50 nM
